Cited source: PubChem BioAssay (NCI)

System: SK-MEL-5 melanoma
EXPERIMENT: NCI tumour cell line growth inhibition, 48 h
Where a SMILES comes first, the peptide text is derived from it. The star is where a group is joined. Boc = CC(C)(C)OC(=O)*

MOLECULE	TGI
O=C(CN1CCCC1=O)CS(=O)(=O)c1ccccc1	> 100 µM
N#CC1C[C@@H]2CC3(CCC2CN1C(=O)c1ccccc1)OCCO3 (stereo not given in full)	> 100 µM
CC(=O)C(=O)NC1/C=C(C)\C=C/C(O)C/C=C(C)\C=C/C(O)CC2OC(=O)C1(C)C(=O)C2C (stereo not given)	> 100 µM
CC(C)C(Nc1ncnc2nc[nH]c12)C(=O)O (stereo not given)	> 100 µM
CC1(C)OC[C@H](C(=N)OCc2ccccc2)O1	> 100 µM
COC(=O)C(Cc1ccccc1)NC(=O)C(CS)NC(=O)OC(C)(C)C (stereo not drawn) (Boc-Cys-Phe-OMe; configuration not given here)	> 100 µM
Cc1cc(=O)[nH]c(CNC(=O)c2ccc3ccccc3c2)n1	> 100 µM
C/C(CCn1[nH]c(=O)ccc1=O)=N\NC(=O)C(N)=O	> 100 µM
Cc1cc2c(c(C(=O)NCC(=O)N[C@@H](C)C(=O)OCc3ccccc3)c1)Oc1c(cc(C)cc1C(=O)NCC(=O)N[C@@H](C)C(=O)OCc1ccccc1)S2	> 100 µM
COC(=O)CNC(=O)C(Cc1ccccc1)NC(=O)c1ccc(-c2ccc(Cl)cc2Cl)o1 (stereo not given)	> 100 µM
O=C1C(=c2ccc(=C3C(=O)c4ccc([N+](=O)[O-])cc4[N+]3=O)cc2)N([O-])c2cc([N+](=O)[O-])ccc21	> 100 µM
O[C@@H]1C[C@H](Cl)c2c(Cl)sc(Cl)c21	> 100 µM
COc1ccc(-c2coc3cc(O)ccc3c2=O)cc1	> 100 µM
N#Cc1c(NCc2ccccc2)nc(NCc2ccccc2)c(C#N)c1-c1ccc(Cl)cc1	> 100 µM
COc1cccc(C=O)c1C(=O)c1cc(O)ccc1O	> 100 µM
O=c1[nH]c2ccccc2c(O)c1Cc1ccccc1	> 100 µM
O=C(NC(=Nc1ccccc1)SCSC(=Nc1ccccc1)NC(=O)c1ccco1)c1ccco1	> 100 µM
CCC(=O)Nc1cccc(N=Cc2ccc(OC(=O)/C=C\c3ccccc3)cc2)c1	> 75 µM
CCCCCCCCCCCCCC[n+]1ccccc1	1.43 µM
Cn1cc(C2=C(c3c4n(c5ccccc35)CCNC4)C(=O)NC2=O)c2ccccc21	> 17.2 µM
Clc1ccc(CCNC2(c3cc4ccccc4s3)CCCCC2)cc1Cl	31.7 µM
C[C@H](c1ccc(F)cc1CCCC(=O)O)N(c1cc(F)ccc1F)S(=O)(=O)c1ccc(Cl)cc1	38 µM
N/C=N/S(=O)(=O)c1ccc(NC(=O)COC(=O)c2cccc3c(=O)c4ccccc4[nH]c23)cc1	> 100 µM
COC(=O)Nc1nc2ccc(S(=O)(=O)Nc3ccccn3)cc2[nH]1	> 100 µM
CSc1ncc2c(n1)-c1ccccc1OC2N1CCOCC1 (stereo not given)	> 100 µM
O=C(NC(=S)Nc1ccc([N+](=O)[O-])cc1)c1ccc2c(c1)Sc1ccccc1O2	> 100 µM
N#CC(C#N)=NNc1ccc2cn[nH]c2c1	> 100 µM
CCc1ccccc1NC(=O)C(C#N)C1=C(Cl)C(=O)c2ccccc2C1=O (stereo not given)	29.6 µM
CC(=O)c1ccccc1NC(=O)C(=O)C(C(=O)c1ccc2ccccc2c1)C1OC(=O)c2ccccc21 (stereo not given)	24.4 µM
COc1cc(OC)cc(Oc2cnc3cc(N)cc(N)c3n2)c1	29.3 µM
